# test protocol: qHTS Screen of the MIPE 4.0 Collection Against Ewings Sarcoma (TC71) (AID 1259253); also: nearly all actives have a fitted effect of over 40% in size
# particulars: TC71 Ewing sarcoma viability, CellTiter-Glo, 48 h; series mostly up to 45.8 µM
Inconclusive results are not listed. Active and inactive are the calls of the source. Calls follow the shape of the dose curve; as a rule, active = well fitted inhibition curve with a large enough effect; inconclusive = small, poorly fitted or top-dose-only effect; inactive = no such curve, though single readings can be large or run the other way. Starred links: 1 amine or outer side, 2 acyl side, 3 side chain; linkers in the order of their positions; H or OH if unused. Positions of bridges follow the written chain, without caps; N, C: chain ends. Non-standard residues stand in square brackets, D forms with d. Residues, ends and D or L forms follow the SMILES beside them. Chains are numbered I, II in the order given. Actinocin(9to1) = Cc1c2oc3c(C)ccc(C(=O)[*:1])c3nc-2c(C(=O)[*:2])c(N)c1=O; NMeV = CN[CH](C(=O)O)C(C)C; Sar = CNCC(=O)O
Select the matching outcome among Y = active, N = inactive

Previously resolved entries follow.
1. CC[C@]12C=CCN3CC[C@@]4(c5cc([C@@]6(C(=O)OC)C[C@H]7C[C@@H](C(C)(F)F)CN(Cc8c6[nH]c6ccccc86)C7)c(OC)cc5N(C)[C@H]4[C@@](O)(C(=O)OC)[C@H]1OC(C)=O)[C@@H]32: Y
2. CO[C@@H]1[C@@H](O)[C@H](O)[C@@H](n2c3c(Cl)cccc3c3c4c(c5c6cccc(Cl)c6[nH]c5c32)C(=O)NC4=O)O[C@@H]1CO: Y
3. C#C[C@]1(O)CC[C@@H]2[C@@H]3CCC4=CC(=O)CC[C@@H]4[C@H]3CC[C@@]21CC: N

Would you mind telling me which call this test gave "Nc1nc2c(c(=O)[nH]1)N(C=O)[C@H](CNc1ccc(C(=O)N[C@@H](CCC(=O)O)C(=O)O)cc1)CN2" ?
N

Would you mind telling me which call this test gave Cc1c2oc3c(C)ccc(C(=O)NC4C(=O)NC(C(C)C)C(=O)N5CCCC5C(=O)N(C)CC(=O)N(C)C(C(C)C)C(=O)OC4C)c3nc-2c(C(=O)NC2C(=O)NC(C(C)C)C(=O)N3CCCC3C(=O)N(C)CC(=O)N(C)C(C(C)C)C(=O)OC2C)c(N)c1=O (stereo not given) (I: TVP[Sar][NMeV] / II: TVP[Sar][NMeV]; ester I:1-I:C, II:1-II:C; linker I:N-II:N via Actinocin(9to1); configuration not given here) ?
N

====

# test protocol: qHTS of pediatric cancer cell lines to identify multiple opportunities for drug repurposing: Primary screen for Saos-2 cells (AID 1347097); also: nearly all actives have a fitted effect of over 40% in size
# particulars: Saos-2 viability, CellTiter-Glo ATP luminescence, 48 h; series mostly up to 46 µM
Results filed as inconclusive are left out. Active and inactive are the calls of the source. The call rests on the fitted dose curve; in most records, active means well fitted cell-killing curve with a large enough effect; inconclusive means small, poorly fitted or top-dose-only effect; inactive means no such curve, though single readings can be large or run the other way.
Select the matching outcome among YES (active), NO (inactive)

1. CC(=O)NC(CS)C(=O)O (stereo not given): NO
2. C[C@H]1[C@@H](OC(=O)CCC(=O)O)O[C@@H]2O[C@@]3(C)CC[C@@H]4[C@H](C)CC[C@@H]1[C@@]24OO3: NO
3. O=C(CN1C(=O)C2(CCCC2)NC[C@H]1c1cc(F)cc(F)c1)Nc1ccc2c(c1)C[C@@]1(C2)C(=O)Nc2ncccc21: NO
4. CC(C)(C)[N+]([O-])=Cc1ccc(S(=O)(=O)O)cc1S(=O)(=O)O: NO
5. CN(CC(=O)N(Cc1ccc(C2CCCCC2)cc1)c1ccc(C(=O)O)c(O)c1)S(=O)(=O)c1c(F)c(F)c(F)c(F)c1F: YES
6. CC(C)Oc1ccc(C(=O)N[C@H](CNC(=O)CN(C)C)Cc2ccc(-c3cn4cccc([C@H](C)O)c4n3)cc2)cc1Cl: YES
7. Cn1cnc2c(F)c(Nc3ccc(Br)cc3F)c(C(=O)NOCCO)cc21: NO
8. COc1ccc(Nc2cc(-c3cnc(N)nc3)nc(N3CCOCC3)n2)cn1: YES
9. CCc1cnn2c(NCc3ccc[n+]([O-])c3)cc(N3CCCC[C@@H]3CCO)nc12: YES
10. C=C1C(=CC=C2CCC[C@]3(C)[C@@H]([C@H](C)CCCC(C)(C)O)CC[C@@H]23)C[C@@H](O)C[C@@H]1O: YES

Would you mind telling me which call this test gave Cc1noc(-c2ccc(CSCCC(=O)O)cc2)c1NC(=O)OC(C)c1ccccc1Cl (stereo not given) ?
NO

Would you mind telling me which call this test gave "O=C(Nc1cc2cc[nH]c2cn1)c1ccccc1" ?
YES

Would you mind telling me which call this test gave CCCCCCCCCCCC(CC1OC(=O)C1CCCCCC)OC(=O)C(CC(C)C)NC=O (stereo not given) ?
YES

Would you mind telling me which call this test gave "c1ccc2c(Oc3nc(Nc4ccc(N5CCOCC5)cc4)c4ncn(C5CCCCC5)c4n3)cccc2c1" ?
NO

Would you mind telling me which call this test gave "COc1ccc(C(C)=O)c(O)c1" ?
YES

====

# test protocol: Quantitative High-Throughput drug screen in 47 multiple myeloma cell lines against the NCATS MIPE library collection: RPMI8226_ATCC cell viability assay (AID 1919871); also: nearly all actives have a fitted effect of over 30% in size
# particulars: RPMI8226 myeloma viability, CellTiter-Glo ATP luminescence, 48 h; series mostly up to 45.8 µM
Results filed as inconclusive are left out. The source made the active and inactive calls. The call rests on the fitted dose curve; in most records, active means well fitted cell-killing curve with a large enough effect; inconclusive means small, poorly fitted or top-dose-only effect, or effect the other way; inactive means no such curve, though single readings can be large or run the other way. Starred links: 1 amine or outer side, 2 acyl side, 3 side chain; linkers in the order of their positions; H or OH if unused. Positions of bridges follow the written chain, without caps; N, C: chain ends. Non-standard residues stand in square brackets, D forms with d. Residues, ends and D or L forms follow the SMILES beside them. Chains are numbered I, II in the order given. Actinocin(9to1) = Cc1c2oc3c(C)ccc(C(=O)[*:1])c3nc-2c(C(=O)[*:2])c(N)c1=O; NMeV = CN[CH](C(=O)O)C(C)C; Sar = CNCC(=O)O
Select the matching outcome among active, inactive

Previously resolved entries follow.
1) c1cncc(CN2CCC(n3ncc4c(N5CCOCC5)nc(-c5ccc6[nH]ccc6c5)nc43)CC2)c1: active
2) N#Cc1ccc(COC[C@H]2O[C@@H](n3c(NCc4ccc(Cl)c(Cl)c4)nc4c(N)ncnc43)[C@@H](O)[C@@H]2O)cc1: active
3) Cc1c2oc3c(C)ccc(C(=O)NC4C(=O)NC(C(C)C)C(=O)N5CCCC5C(=O)N(C)CC(=O)N(C)C(C(C)C)C(=O)OC4C)c3nc-2c(C(=O)NC2C(=O)NC(C(C)C)C(=O)N3CCCC3C(=O)N(C)CC(=O)N(C)C(C(C)C)C(=O)OC2C)c(N)c1=O (stereo not given) (I: TVP[Sar][NMeV] / II: TVP[Sar][NMeV]; ester I:1-I:C, II:1-II:C; linker I:N-II:N via Actinocin(9to1); configuration not given here): inactive

Would you mind telling me which call this test gave "CC(=O)NCC(=O)N1[C@H]2CC[C@H]1c1cc(Nc3ncc(C(F)(F)F)c(NC4CCC4)n3)ccc12" ?
active

Would you mind telling me which call this test gave "CS[C@H]1SC[C@@H]2C(=O)N(C)[C@H](C(C)C)C(=O)OC[C@H](NC(=O)c3cnc4ccccc4n3)C(=O)N[C@H](C)C(=O)N(C)[C@@H]1C(=O)N(C)[C@H](C(C)C)C(=O)OC[C@H](NC(=O)c1cnc3ccccc3n1)C(=O)N[C@H](C)C(=O)N2C" ?
active

====

# test protocol: Quantitative High-Throughput drug screen in 47 multiple myeloma cell lines against the NCATS MIPE library collection: MM1S_ATCC cell viability assay (AID 1918980); also: nearly all actives have a fitted effect of over 45% in size; also: potency is read from the fitted curve at half-maximal effect
# particulars: MM1S myeloma viability, CellTiter-Glo ATP luminescence, 48 h; series mostly up to 45.8 µM
Results filed as inconclusive are left out. The source made the active and inactive calls. Calls come from the whole dose curve; as a rule, active = well fitted cell-killing curve with a large enough effect; inconclusive = small, poorly fitted or top-dose-only effect, or effect the other way; inactive = no such curve, though single readings can be large or run the other way.
result type: Potency

# count of solved cases: 6
1. COc1ccc([C@@H]2CNC(=O)C2)cc1OC1CCCC1: 743 nM (active)
2. N#Cc1c(C2CCNCC2)cc(-c2c(O)cccc2OCC2CC2)nc1N: 16600 nM (active)
3. Cn1cnc(=N)c2[nH]cnc21: 93.5 nM (active)
4. CCOC(=O)[C@@H](N)Cc1ccc(-c2cc(O[C@H](c3ccc(Cl)cc3-n3ccc(C)n3)C(F)(F)F)nc(N)n2)cc1: 2960 nM (active)
5. Cn1cc(C=CC(=O)c2cccc(F)c2)cc1C=CC(=O)NO: 14800 nM (active)
6. CCC[C@H]1C[C@H](C(=O)N[C@@H]([C@@H]2O[C@@H](SC)[C@@H](O)[C@@H](O)[C@@H]2O)[C@H](C)Cl)N(C)C1: inactive

Find the recorded Potency belonging to CC(O)(C#Cc1ccc2c(c1)N(c1nc(N)ncc1Cl)CC2)c1nccs1 (centres undefined) and report it.
11800 nM (active)

Find the recorded Potency belonging to "O=[N+]([O-])c1cn2c(n1)OC[C@@H](OCc1ccc(OC(F)(F)F)cc1)C2" and report it.
2640 nM (active)

Find the recorded Potency belonging to "COc1cc(C=CC(=O)CC(=O)C=Cc2ccc(O)c(OC)c2)ccc1O" and report it.
27000 nM (active)

Find the recorded Potency belonging to "O=C1NC(=O)C(=Cc2ccc3nccc(-c4ccncc4)c3c2)S1" and report it.
118 nM (active)

Find the recorded Potency belonging to "COC[C@H](NC(=O)c1cnc(C)s1)C(=O)N[C@@H](COC)C(=O)N[C@@H](Cc1ccccc1)C(=O)[C@@]1(C)CO1" and report it.
59 nM (active)

Find the recorded Potency belonging to "NC[C@H]1O[C@H](O[C@H]2[C@@H](O)[C@@H](O[C@H]3O[C@H](CO)[C@@H](O)[C@H](N)[C@@H]3O)[C@H](N)C[C@@H]2N)[C@H](N)C[C@H]1O" and report it.
inactive

Find the recorded Potency belonging to "C[C@H]1[C@@H](OC(=O)CCC(=O)O)O[C@@H]2O[C@@]3(C)CC[C@@H]4[C@H](C)CC[C@@H]1[C@@]24OO3" and report it.
18700 nM (active)

Find the recorded Potency belonging to "CC(C=CC1=C(C)CCCC1(C)C)=CC=CC(C)=CC(=O)Nc1ccc(O)cc1" and report it.
48100 nM (active)
